Could you please report measured log10 of IC50 for the items listed next?
# System: PC-3
# protocol summary: Cytotoxicity against human PC3 cells after 6 days by MTT method
# Type: functional, cell-based
# reported conditions: PC-3, 144 h
Units before log transform: µg/mL; reported quantity: IC50; transform: log10.

Examples with their reported log10 of IC50 follow.
INSERT INTO results (compound, target_entity, data_value) VALUES
  ('CC1(C)CCC(=O)[C@@]2(C)OO[C@H]3C[C@]12CCC3=O [TALAPEROXIDE C]', 'PC-3', 0.64),
  ('CC1(C)CCC(=O)[C@@]2(C)OO[C@@H]3C[C@@]12CC[C@H]3O', 'PC-3', 0.26),
  ('COc1cccc2c1C(=O)c1c(O)c3c(c(O)c1C2=O)C[C@@](O)(C(=O)CO)C[C@@H]3O[C@H]1C[C@H](N)[C@@H](O)[C@H](C)O1 [EPIRUBICIN]', 'PC-3', -0.80);

Hi there! I need log10 of IC50 for each item below, if you can.
1. CC1(C)CCC(=O)[C@]2(C)OO[C@H]3C[C@]12CCC3=O [TALAPEROXIDE D]
2. CC(=O)O[C@H]1CC[C@]23C[C@@H]1OO[C@@]2(C)C(=O)CCC3(C)C [TALAPEROXIDE B]
3. CC(=O)O[C@H]1CC[C@]23C[C@@H]1OO[C@]2(C)C(=O)CCC3(C)C [TALAPEROXIDE A]

-0.15
-0.05
0.76

Data provenance is ChEMBL document CHEMBL1781885.
